Hello, the source for this data is patent US9422240B2, in case you need it.

system-tested: human PHD2 (Homo sapiens (Human))
Sequence (Q9GZT9 whole entry): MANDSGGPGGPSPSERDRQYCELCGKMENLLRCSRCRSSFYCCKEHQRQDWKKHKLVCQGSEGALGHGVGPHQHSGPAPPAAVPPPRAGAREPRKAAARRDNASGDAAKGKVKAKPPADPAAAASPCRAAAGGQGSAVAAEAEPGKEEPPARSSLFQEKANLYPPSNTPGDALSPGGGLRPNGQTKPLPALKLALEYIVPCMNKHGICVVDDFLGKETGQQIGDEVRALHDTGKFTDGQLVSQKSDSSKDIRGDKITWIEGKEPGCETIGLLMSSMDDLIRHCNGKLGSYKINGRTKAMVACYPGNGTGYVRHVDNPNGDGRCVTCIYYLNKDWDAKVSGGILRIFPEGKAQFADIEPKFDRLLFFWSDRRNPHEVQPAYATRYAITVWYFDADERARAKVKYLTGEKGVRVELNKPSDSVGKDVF
assay-summary: Test 1: human PHD2 inhibitory activity, [14C]-2-oxoglutarate to [14C]-succinic acid radiometric assay with HIF-1α peptide
Type: biochemical
test-context: test compound's concentration 1 μM; Test 1, [14C]-2-oxoglutarate radiometric assay; read-out: Percent inhibition (% at 1 μM)

>  <compound>
O=C(O)CNC(=O)C1=C(O)CC2(CCOCC2)N(Cc2ccc(-c3ccccn3)cc2)C1=O

>  <inhibition at 1 µM>
78%

$$$$
>  <compound>
CC1CC(O)=C(C(=O)NCC(=O)O)C(=O)N1C1(c2ccc(C(F)(F)F)cc2)CC1 (stereo not drawn)

>  <inhibition at 1 µM>
59%

$$$$
>  <compound>
CC(C)(C)c1ccc(-c2ccc(CN3CCC(O)=C(C(=O)NCC(=O)O)C3=O)cc2)cc1

>  <inhibition at 1 µM>
83%

$$$$
>  <compound>
O=C(O)CNC(=O)C1=C(O)CCN(Cc2ccc(-c3cccnc3)cc2)C1=O

>  <inhibition at 1 µM>
88%

$$$$
>  <compound>
O=C(O)CNC(=O)C1=C(O)CC2(CC2)N(Cc2ccc(OCC3CC3)cc2)C1=O

>  <inhibition at 1 µM>
90%

$$$$
>  <compound>
CC(c1ccc(-c2ccccc2)cc1)N1CCC(O)=C(C(=O)NCC(=O)O)C1=O (stereo not drawn)

>  <inhibition at 1 µM>
96%

$$$$
>  <compound>
CC1(COCc2ccc(CN3CCC(O)=C(C(=O)NCC(=O)O)C3=O)cc2)CC1

>  <inhibition at 1 µM>
91%

$$$$
>  <compound>
O=C(O)CNC(=O)C1=C(O)CCN(Cc2ccc3c(c2)CCC3)C1=O

>  <inhibition at 1 µM>
85%

$$$$
>  <compound>
O=C(O)CNC(=O)C1=C(O)C2(CCOCC2)CN(Cc2ccc(-c3ccccc3)cc2)C1=O

>  <inhibition at 1 µM>
95%

$$$$
>  <compound>
CC1(C)C(O)=C(C(=O)NCC(=O)O)C(=O)N(Cc2ccc(C(F)(F)F)cc2)C1(C)C

>  <inhibition at 1 µM>
32%

$$$$
>  <compound>
Cc1ccc(CN2CC3(CCCCC3)C(O)=C(C(=O)NCC(=O)O)C2=O)cc1

>  <inhibition at 1 µM>
48%

$$$$
>  <compound>
CCOc1ccc(CN2CCC(O)=C(C(=O)NCC(=O)O)C2=O)cc1

>  <inhibition at 1 µM>
81%

$$$$
>  <compound>
CC1(C)CC(O)=C(C(=O)NCC(=O)O)C(=O)N1Cc1ccc(-c2ccccc2)cc1

>  <inhibition at 1 µM>
84%

$$$$
>  <compound>
CC1(C)CC(O)=C(C(=O)NCC(=O)O)C(=O)N1Cc1ccc(-c2ccccn2)cc1

>  <inhibition at 1 µM>
70%

$$$$
>  <compound>
O=C(O)CNC(=O)C1=C(O)C2(CCOCC2)CN(CC2CCC(c3ccccc3)CC2)C1=O (stereo not drawn)

>  <inhibition at 1 µM>
83%

$$$$
>  <compound>
O=C(O)CNC(=O)C1=C(O)CC2(CCOCC2)N(CC2CCC(c3ccccc3)CC2)C1=O (stereo not drawn)

>  <inhibition at 1 µM>
71%

$$$$
>  <compound>
O=C(O)CNC(=O)C1=C(O)CCN(Cc2ccccc2-c2ccccc2)C1=O

>  <inhibition at 1 µM>
72%

$$$$
>  <compound>
O=C(O)CNC(=O)C1=C(O)C2(CCOCC2)CN(Cc2cnc(-c3ccccc3)s2)C1=O

>  <inhibition at 1 µM>
89%

$$$$
>  <compound>
O=C(O)CNC(=O)C1=C(O)CCN(Cc2ccc(-c3ccc(-c4ccccc4)cc3)cc2)C1=O

>  <inhibition at 1 µM>
84%

$$$$
>  <compound>
O=C(O)CNC(=O)C1=C(O)CCN(Cc2ccc(C(F)(F)F)c(C(F)(F)F)c2)C1=O

>  <inhibition at 1 µM>
69%

$$$$
>  <compound>
O=C(O)CNC(=O)C1=C(O)CC2(CCC2)N(Cc2cnc(-c3ccccc3)s2)C1=O

>  <inhibition at 1 µM>
93%

$$$$
